Data provenance is PubChem BioAssay.

# Experiment: AGP1-GFP expression modulators, hit retest, confirmation, cell-based, flow cytometry, S. cerevisiae, cherry picks (AID 2273);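 note: median GFP channel fluorescence over the whole cell population gate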
# Condition Context: S. cerevisiae AGP1-GFP strain, 3 h, at 10 µM
Measured GFP response, % of DMSO values are reported for all entries that follow.
Supply the numeric figure in %, leaving out any unit text.

Study these solved cases before continuing.
>  <Compound>
CC1=NNC(=O)/C1=C\c1cn(-c2ccccc2)nc1-c1cccs1

>  <Units Of Measure>
%

>  <GFP response, % of DMSO>
120

$$$$
>  <Compound>
CCn1c(/C=C/c2ccc([N+](=O)[O-])o2)nc2ccccc2c1=O

>  <Units Of Measure>
%

>  <GFP response, % of DMSO>
131

$$$$
>  <Compound>
Fc1cccc(Cl)c1Cn1ncc2ccccc21

>  <Units Of Measure>
%

>  <GFP response, % of DMSO>
101

$$$$

Now consider a different compound.
Looking for the measured GFP response, % of DMSO of `O=C1C=CC(=O)N1c1ccc(O)cc1` , can you help?
90
